# TESTED SYSTEM: GHSR (Homo sapiens)
# Construct: purchased Promega (in-house HiBiT-GPCR construct library, NanoBRET)
# Sequence (Q92847 whole entry): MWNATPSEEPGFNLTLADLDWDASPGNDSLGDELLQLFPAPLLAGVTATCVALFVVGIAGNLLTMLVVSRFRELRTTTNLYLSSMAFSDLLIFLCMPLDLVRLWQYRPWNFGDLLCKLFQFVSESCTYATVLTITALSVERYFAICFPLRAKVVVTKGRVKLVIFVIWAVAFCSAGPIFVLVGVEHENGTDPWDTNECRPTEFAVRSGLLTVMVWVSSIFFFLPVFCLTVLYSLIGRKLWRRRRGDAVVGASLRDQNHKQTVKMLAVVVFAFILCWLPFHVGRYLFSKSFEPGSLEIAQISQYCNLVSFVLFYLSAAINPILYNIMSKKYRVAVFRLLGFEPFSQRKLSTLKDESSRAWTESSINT
# EXPERIMENT: NanoBRET screen HiBiT-GHSR in HEK293
# Type: binding
# DETAILS: GHSR; tracer 1μM
For each record, write down the corresponding NanoBRET Fold Response.
Numbers only.

- CCCn1c(=O)c2[nH]c(-c3ccc(OCC(=O)NCCNC(=O)CCOCCNC(=O)c4ccc(CNC(=O)CCc5ccc6n5[B-](F)(F)[N+]5=C(c7ccc[nH]7)C=CC5=C6)cc4)cc3)nc2n(CCC)c1=O: 1.02
- CC(C)N(CC[C@H](c1ccccc1)c1cc(CCNC(=O)CCOCCOCCOCCOCCNC(=O)CCc2ccc3n2[B-](F)(F)[N+]2=C(c4ccc[nH]4)C=CC2=C3)ccc1O)C(C)C: 1.11
- N#CN=C(NCCCOc1cccc(CN2CCCCC2)c1)NCCNC(=O)CCOCCOCCOCCOCCNC(=O)CCc1ccc2n1[B-](F)(F)[N+]1=C(c3ccc[nH]3)C=CC1=C2: 1.07
- COc1ccccc1N1CCN(CCCCN2C(=O)c3ccc(CNC(=O)CCOCCNC(=O)c4ccc(CNC(=O)CCc5ccc6n5[B-](F)(F)[N+]5=C(c7ccc[nH]7)C=CC5=C6)cc4)cc3C2=O)CC1: 1.06
- O=C(CCOCCOCCOCCOCCNC(=O)CCc1ccc2n1[B-](F)(F)[N+]1=C(c3ccc[nH]3)C=CC1=C2)NCCCN1CCN(C2=Nc3ccccc3Oc3ccc(Cl)cc32)CC1: 1.09

NanoBRET Fold Response for Cc1nc2n(c(=O)c1CCN1CCC(c3noc4cc(F)ccc34)CC1)CCCC2OC(=O)NCCOCCOCCOCCOCCNC(=O)CCc1ccc2n1[B-](F)(F)[N+]1=C(c3ccc[nH]3)C=CC1=C2 (stereo not drawn) is 1.02

###

# TESTED SYSTEM: PDGFRB (Homo sapiens, UniProt P09619)
# Construct: purchased Promega (in-house HiBiT-GPCR construct library, NanoBRET)
# Sequence (P09619 33-1106): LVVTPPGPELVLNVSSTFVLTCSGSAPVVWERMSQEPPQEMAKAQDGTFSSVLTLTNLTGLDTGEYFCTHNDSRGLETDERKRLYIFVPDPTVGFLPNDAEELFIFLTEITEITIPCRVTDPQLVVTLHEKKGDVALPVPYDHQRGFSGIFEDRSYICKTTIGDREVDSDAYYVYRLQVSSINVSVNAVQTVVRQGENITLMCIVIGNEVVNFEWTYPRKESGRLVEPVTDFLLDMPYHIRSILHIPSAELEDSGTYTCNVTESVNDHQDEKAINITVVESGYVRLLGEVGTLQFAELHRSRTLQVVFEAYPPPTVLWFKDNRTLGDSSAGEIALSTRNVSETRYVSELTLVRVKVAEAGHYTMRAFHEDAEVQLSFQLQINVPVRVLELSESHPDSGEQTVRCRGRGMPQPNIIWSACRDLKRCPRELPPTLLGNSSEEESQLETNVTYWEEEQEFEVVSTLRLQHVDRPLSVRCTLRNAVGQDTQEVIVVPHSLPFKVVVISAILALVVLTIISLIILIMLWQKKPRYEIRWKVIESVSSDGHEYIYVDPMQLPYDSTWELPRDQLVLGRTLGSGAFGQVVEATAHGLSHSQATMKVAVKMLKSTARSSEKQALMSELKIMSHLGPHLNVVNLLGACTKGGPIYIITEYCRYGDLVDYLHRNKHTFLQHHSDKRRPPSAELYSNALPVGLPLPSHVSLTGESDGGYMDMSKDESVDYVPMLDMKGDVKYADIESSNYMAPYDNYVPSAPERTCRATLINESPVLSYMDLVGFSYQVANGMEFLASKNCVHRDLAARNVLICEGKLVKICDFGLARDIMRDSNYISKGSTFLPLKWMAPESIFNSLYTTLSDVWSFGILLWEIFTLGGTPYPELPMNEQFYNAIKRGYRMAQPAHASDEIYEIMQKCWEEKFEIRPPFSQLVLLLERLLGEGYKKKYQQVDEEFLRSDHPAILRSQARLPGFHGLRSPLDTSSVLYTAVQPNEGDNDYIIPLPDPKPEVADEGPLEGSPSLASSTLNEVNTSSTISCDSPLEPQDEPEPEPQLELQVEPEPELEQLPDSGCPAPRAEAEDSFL
# EXPERIMENT: NanoBRET screen HiBiT-PDGFRB in HEK293
# Type: binding
# DETAILS: PDGFRB; tracer 1μM
Rule: NanoBRET Fold Response under 0.9 gives False, otherwise True.

* O=C(CCOCCOCCOCCOCCNC(=O)CCc1ccc2n1[B-](F)(F)[N+]1=C(c3ccc[nH]3)C=CC1=C2)NCCCN1CCN(C2=Nc3ccccc3Oc3ccc(Cl)cc32)CC1 | True

Challenge: Is NanoBRET Fold Response for O=C(CCc1ccc2n1[B-](F)(F)[N+]1=C(c3ccc[nH]3)C=CC1=C2)NCc1ccc(C(=O)NCCOCCC(=O)N[C@@H]2CC[C@@]3(O)[C@H]4Cc5ccc(O)c6c5[C@@]3(CCN4CC3CC3)[C@H]2O6)cc1 [Naltrexone-3-NB590] at or above 0.9?
Response given: True

Challenge: Is NanoBRET Fold Response for `CCCn1c(=O)c2[nH]c(-c3ccc(OCC(=O)NCCNC(=O)CCOCCNC(=O)c4ccc(CNC(=O)CCc5ccc6n5[B-](F)(F)[N+]5=C(c7ccc[nH]7)C=CC5=C6)cc4)cc3)nc2n(CCC)c1=O` at or above 0.9?
Response given: False

Challenge: Is NanoBRET Fold Response for `COc1ccccc1N1CCN(CCCCN2C(=O)c3ccc(CNC(=O)CCOCCNC(=O)c4ccc(CNC(=O)CCc5ccc6n5[B-](F)(F)[N+]5=C(c7ccc[nH]7)C=CC5=C6)cc4)cc3C2=O)CC1` at or above 0.9?
Response given: True

src = paper PMC8151276
